Measured values drawn from ChEMBL document CHEMBL4266021 for this set.

Ki values recorded for Liver carboxylesterase 1 (Homo sapiens, UniProt P23141)

Which Ki is reported for this molecule? `Cc1cccc2c1ccc1c3c(c(=O)oc(=O)c12)[C@@H](C)CO3`
3.6 nM

Which Ki is reported for this molecule? `Cc1cccc2c1ccc1c3occ(C)c3c(=O)oc(=O)c21`
2.4 nM

* * *

System: carboxylesterase 1 (CE1) (Homo sapiens, UniProt P23141)
Sequence (P23141 whole entry): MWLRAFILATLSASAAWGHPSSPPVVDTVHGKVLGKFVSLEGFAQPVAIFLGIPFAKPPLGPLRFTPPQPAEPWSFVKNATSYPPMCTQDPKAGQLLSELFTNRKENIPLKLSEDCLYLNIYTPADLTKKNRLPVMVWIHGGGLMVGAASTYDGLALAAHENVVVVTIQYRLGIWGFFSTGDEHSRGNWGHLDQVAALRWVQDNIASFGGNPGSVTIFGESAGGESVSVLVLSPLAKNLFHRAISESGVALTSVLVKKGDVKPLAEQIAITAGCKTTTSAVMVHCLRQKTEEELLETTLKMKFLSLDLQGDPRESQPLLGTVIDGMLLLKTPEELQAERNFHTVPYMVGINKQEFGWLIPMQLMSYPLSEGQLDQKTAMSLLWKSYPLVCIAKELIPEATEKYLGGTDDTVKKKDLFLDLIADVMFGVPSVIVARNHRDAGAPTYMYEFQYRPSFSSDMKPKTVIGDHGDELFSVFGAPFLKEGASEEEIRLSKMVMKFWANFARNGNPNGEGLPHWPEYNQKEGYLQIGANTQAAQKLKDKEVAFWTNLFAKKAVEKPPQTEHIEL
Experiment Notes: Inhibition of human CE1 expressed in human U373MG cells assessed as reduction in enzyme-mediated oseltamivir hydrolysis at 10 uM preincubated for 10 mins followed by oseltamivir addition measured after 30 mins by UPLC-MS analysis relative to control
Assay type: cell-based
Experimental Setup: U373MG cells that express human CE1, probe oseltamivir
Exercise: state measured inhibition at 0.5 h, 10 µM for each of the compounds provided.

Which inhibition at 0.5 h, 10 µM is reported for this compound? `Cc1cccc2c1ccc1c3occ(C)c3c(=O)oc(=O)c21`
> 70%

Which inhibition at 0.5 h, 10 µM is reported for this compound? `Cc1cccc2c1ccc1c3c(c(=O)oc(=O)c12)[C@@H](C)CO3`
99%

Which inhibition at 0.5 h, 10 µM is reported for this compound? `Cc1coc2c1c(=O)oc(=O)c1c3c(ccc12)C(C)(C)CCC3`
> 70%

Which inhibition at 0.5 h, 10 µM is reported for this compound? `C[C@H]1COc2c1c(=O)oc(=O)c1c3c(ccc21)C(C)(C)CCC3`
> 70%
